- Tgt: Glycogen Synthase Kinase-3 (beta isoform) (Oryctolagus cuniculus, UniProt G1T8E2)
- Construct: purchased New England Biolabs 6040; host or cells: E. coli
- Sequence (G1T8E2 1-432): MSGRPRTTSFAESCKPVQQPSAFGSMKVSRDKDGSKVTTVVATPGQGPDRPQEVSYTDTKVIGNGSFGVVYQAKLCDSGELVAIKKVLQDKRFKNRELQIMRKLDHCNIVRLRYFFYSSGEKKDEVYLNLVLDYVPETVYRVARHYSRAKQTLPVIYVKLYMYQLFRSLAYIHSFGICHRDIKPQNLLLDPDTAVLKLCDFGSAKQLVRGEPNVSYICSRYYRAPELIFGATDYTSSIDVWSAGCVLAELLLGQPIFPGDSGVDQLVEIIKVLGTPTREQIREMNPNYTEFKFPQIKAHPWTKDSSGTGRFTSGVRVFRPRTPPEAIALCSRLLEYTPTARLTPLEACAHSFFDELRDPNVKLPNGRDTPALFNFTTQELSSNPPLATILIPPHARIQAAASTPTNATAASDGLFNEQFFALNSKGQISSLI
- Protocol notes: Kinase Selectivity Assay Glycogen Synthase Kinase-3
- Assay type: biochemical, rabbit
Attribute: pIC50
Would you please state pIC50, meaning minus log10 of the concentration in mol/L, as a bare number?

Sample records with pIC50:
Nc1nc(Nc2ccc(S(N)(=O)=O)cc2)nn1C(=O)c1c(F)cccc1F :: 7.39
Cc1ccc(F)c(C(=O)n2nc(Nc3ccc(S(N)(=O)=O)cc3)nc2N)c1F :: 7.51

Then this molecule:
Prompt: Provide measured pIC50 value, entry: `Cc1cc(C)c(C(=O)n2nc(Nc3ccc(S(N)(=O)=O)cc3)nc2N)s1`
Completion: 8.40

---

- Tgt: HER2 (human epidermal growth factor receptor-2) (Homo sapiens)
- Construct: begins at amino acid 676 followed by the remainder of the HER2 cytoplasmic domain; polyhistidine (N)
- Protocol notes: Kinase Selectivity Assay HER2
- Assay type: biochemical
- Condition label: Table 1; read-out: HER2 IC50
- Description: Assays to test compound inhibition of other kinases were preformed using methods that measure the amount of phosphorylation of a biotinylated peptide substrate. Biotinylated peptide substrates were selected from the literature as appropriate for the enzyme being evaluated. […] The plate was read on a scintillation counter to determine ^33P-γ-ATP incorporated into the immobilized peptide. […] A maximum and minimum signal for the assay was determined on each plate. […]
Measured quantity: pIC50
// pIC50: -log10(molar conc.)

Nc1nc(Nc2ccc(S(N)(=O)=O)cc2)nn1C(=O)c1c(F)cccc1Cl :: 5.91
Cc1ccsc1C(=O)n1nc(Nc2ccc(N3CCCS3(=O)=O)cc2)nc1N :: 6.88

Next molecule, please.
Prompt: Indicate its recorded pIC50; the molecule in question is `Nc1nc(Nc2ccc(-n3cnnc3)cc2)nn1C(=O)c1c(F)cccc1F`
Completion: 5.89

---

- Tgt: Protein Kinase A (Bos taurus)
- Construct: purified from bovine heart; purchased Upstate Biotech 14-114; host or cells: bovine heart
- Protocol notes: Kinase Selectivity Assay Protein Kinase A
- Assay type: biochemical, bovine
- Condition label: Kinase Selectivity, Tables 2a-2k; read-out: PKA IC50
- Protocol: Assays to test compound inhibition of other kinases were preformed using methods that measure the amount of phosphorylation of a biotinylated peptide substrate. Biotinylated peptide substrates were selected from the literature as appropriate for the enzyme being evaluated. […] The plate was read on a scintillation counter to determine ^33P-γ-ATP incorporated into the immobilized peptide. […] A maximum and minimum signal for the assay was determined on each plate. […]
pIC50: −log10 of the molar value.
Measured quantity: pIC50

Below are worked cases with known answers.
Cc1ccsc1C(=O)n1nc(Nc2ccc(N3CCCS3(=O)=O)cc2)nc1N :: < 4.00
Nc1nc(Nc2ccc(S(N)(=O)=O)cc2)n(C(=S)Nc2c(F)cccc2F)n1 :: < 4.00
Nc1nc(Nc2ccc(N3CCCS3(=O)=O)cc2)nn1C(=O)c1c(F)cccc1F :: < 4.00
Nc1nc(Nc2ccc(S(=O)(=O)Nc3ccccn3)cc2)nn1C(=O)c1c(F)cccc1F :: < 4.00

Next:
Prompt: Give pIC50 for this entry on Protein Kinase A (Bos taurus): `Cc1ccsc1C(=O)n1nc(Nc2ccc(NS(C)(=O)=O)cc2)nc1N`
Completion: < 4.00

---

- Tgt: Protein Kinase A (Bos taurus)
- Construct: purified from bovine heart; purchased Upstate Biotech 14-114; host or cells: bovine heart
- Protocol notes: Kinase Selectivity Assay Protein Kinase A
- Format: biochemical, bovine
- Condition label: Kinase Selectivity, Tables 2a-2k; read-out: PKA IC50
pIC50: −log10 of the molar value.
Listed here: items and their measured pIC50.

Prompt: Input `Cc1ccccc1C(=O)n1nc(Nc2ccc(S(N)(=O)=O)cc2)nc1N` , output reported pIC50.
Completion: < 4.00

Prompt: Check the records and state pIC50 for `CCc1ccc(C(=O)n2nc(Nc3ccc(S(=O)(=O)NCCN(C)C)cc3)nc2N)s1`
Completion: < 4.00

Prompt: State its pIC50: `Nc1nc(Nc2ccc(S(=O)(=O)N3CCCCC3)cc2)nn1C(=O)c1cccs1`
Completion: < 4.00

---

Reported pIC50 values for the following compounds.
- Tgt: VEGF-R (vascular endothelial growth factor receptor-2) (Rattus norvegicus, UniProt O08775)
- Construct: polyhistidine (6xHIS) (N)
- Sequence (O08775 786-1343): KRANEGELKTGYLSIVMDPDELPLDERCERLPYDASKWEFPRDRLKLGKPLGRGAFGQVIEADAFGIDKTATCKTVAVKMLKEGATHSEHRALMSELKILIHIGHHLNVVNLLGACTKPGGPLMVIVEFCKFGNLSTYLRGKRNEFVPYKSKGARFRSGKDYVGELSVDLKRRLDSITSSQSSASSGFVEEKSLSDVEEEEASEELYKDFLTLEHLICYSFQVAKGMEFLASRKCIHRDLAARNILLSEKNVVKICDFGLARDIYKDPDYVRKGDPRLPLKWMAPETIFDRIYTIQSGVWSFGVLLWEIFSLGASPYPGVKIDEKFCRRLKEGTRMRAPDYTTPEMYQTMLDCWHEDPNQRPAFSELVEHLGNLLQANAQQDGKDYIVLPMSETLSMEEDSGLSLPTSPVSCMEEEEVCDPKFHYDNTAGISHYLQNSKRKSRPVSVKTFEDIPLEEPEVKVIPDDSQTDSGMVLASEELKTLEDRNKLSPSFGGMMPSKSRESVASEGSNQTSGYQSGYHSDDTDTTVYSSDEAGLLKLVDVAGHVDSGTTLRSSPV
- Protocol notes: VEGF-R Screening Assay
- Format: biochemical
- Condition label: Table 1; read-out: VEGF-R IC50
Scale: negative log10 of molar concentration, which is what pIC50 denotes.

Example entries and their recorded answers appear below.
Nc1nc(Nc2ccc(-n3ccnc3)cc2)nn1C(=O)c1c(F)cccc1F :: 6.14
Cc1ccsc1C(=O)n1nc(Nc2ccc(S(=O)(=O)N(C)C)cc2)nc1N :: 7.77
Nc1nc(Nc2ccc(S(N)(=O)=O)cc2)nn1C(=O)c1sccc1Br :: 7.33
Nc1nc(Nc2ccc(S(N)(=O)=O)cc2)nn1C(=O)Nc1c(F)cccc1F :: 7.42
Nc1nc(Nc2ccc(S(N)(=O)=O)cc2)nn1C(=O)c1ccccc1[N+](=O)[O-] :: 5.80
Nc1nc(Nc2ccc(S(N)(=O)=O)cc2)nn1C(=O)c1c(F)ccc([N+](=O)[O-])c1F :: 4.85
CCc1ccc(C(=O)n2nc(Nc3ccc(S(N)(=O)=O)cc3)nc2N)s1 :: 7.66
Cc1ccsc1C(=O)n1nc(Nc2ccc(N3CCCS3(=O)=O)cc2)nc1N :: 7.58
Nc1nc(Nc2ccc(S(N)(=O)=O)cc2)nn1C(=O)c1c(F)ccc(Cl)c1F :: 6.38
CCNS(=O)(=O)c1ccc(Nc2nc(N)n(C(=O)c3c(F)cccc3F)n2)cc1 :: 6.28

Prompt: Provide pIC50, tested on VEGF-R (vascular endothelial growth factor receptor-2) (Rattus norvegicus, UniProt O08775), for `Nc1nc(Nc2ccc(S(=O)(=O)Nc3ccccn3)cc2)nn1C(=O)c1c(F)cccc1F` .
Completion: 6.40

Prompt: Param request: pIC50 | system VEGF-R (vascular endothelial growth factor receptor-2) (Rattus norvegicus, UniProt O08775) | item `Nc1nc(Nc2ccc(-n3cnnc3)cc2)nn1C(=O)c1c(F)cccc1F`
Completion: 5.96

Prompt: Fill: pIC50 (VEGF-R (vascular endothelial growth factor receptor-2) (Rattus norvegicus, UniProt O08775)) for this compound `Nc1nc(Nc2ccc(S(N)(=O)=O)cc2)nn1C(=O)c1ccco1`
Completion: 7.19

Prompt: Param request: pIC50 | system VEGF-R (vascular endothelial growth factor receptor-2) (Rattus norvegicus, UniProt O08775) | item `CCc1ccc(C(=O)n2nc(Nc3ccc(S(=O)(=O)N(C)C)cc3)nc2N)s1`
Completion: 7.06

Prompt: Give pIC50; test system VEGF-R (vascular endothelial growth factor receptor-2) (Rattus norvegicus, UniProt O08775); compound `Nc1nc(Nc2ccc(S(=O)(=O)N3CCCCC3)cc2)nn1C(=O)c1c(F)cccc1F`
Completion: 6.27

Prompt: Provide pIC50, recorded with VEGF-R (vascular endothelial growth factor receptor-2) (Rattus norvegicus, UniProt O08775), of `Cc1cc(C)c(C(=O)n2nc(Nc3ccc(NS(C)(=O)=O)cc3)nc2N)s1`
Completion: 7.51

---

- Tgt: HER2 (human epidermal growth factor receptor-2) (Homo sapiens, UniProt P04626)
- Construct: begins at amino acid 676 followed by the remainder of the HER2 cytoplasmic domain; polyhistidine (N)
- Sequence (P04626 676-1255 limits assumed): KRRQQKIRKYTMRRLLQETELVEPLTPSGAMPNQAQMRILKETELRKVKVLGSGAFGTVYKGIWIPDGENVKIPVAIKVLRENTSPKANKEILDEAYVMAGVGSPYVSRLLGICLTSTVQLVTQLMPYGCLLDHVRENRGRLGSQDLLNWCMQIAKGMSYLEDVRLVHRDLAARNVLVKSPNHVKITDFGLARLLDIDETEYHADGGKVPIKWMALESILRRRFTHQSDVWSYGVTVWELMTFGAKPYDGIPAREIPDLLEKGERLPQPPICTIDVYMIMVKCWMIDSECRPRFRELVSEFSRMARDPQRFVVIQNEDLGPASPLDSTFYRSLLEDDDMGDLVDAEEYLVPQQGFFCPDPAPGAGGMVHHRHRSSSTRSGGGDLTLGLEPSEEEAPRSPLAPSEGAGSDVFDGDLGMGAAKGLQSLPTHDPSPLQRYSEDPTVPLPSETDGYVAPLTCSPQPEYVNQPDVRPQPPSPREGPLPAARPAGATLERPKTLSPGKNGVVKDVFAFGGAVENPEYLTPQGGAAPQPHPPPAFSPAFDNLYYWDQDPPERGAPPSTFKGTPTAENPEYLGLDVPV
- Protocol notes: Kinase Selectivity Assay HER2
- Type: biochemical
Measured quantity: IC50 (nM)
Numbers only; they are read as nM.

Prompt: Please give measured IC50 of the following entry: Cc1cc(C)c(C(=O)n2nc(Nc3ccc(S(N)(=O)=O)cc3)nc2N)s1 [Cpd 33]
Completion: 5

---

- Tgt: Protein Kinase A (Bos taurus, UniProt P00517)
- Construct: purified from bovine heart; purchased Upstate Biotech 14-114; host or cells: bovine heart
- Protocol notes: Kinase Selectivity Assay Protein Kinase A
- Format: biochemical, bovine
- Condition label: Kinase Selectivity, Tables 2a-2k; read-out: PKA IC50
pIC50: −log10 of the molar value.
Recorded pIC50, one value per entry.

CC(C)(C)c1ccc(C(=O)n2nc(Nc3ccc(S(N)(=O)=O)cc3)nc2N)s1 [Cpd 51] :: 6.04
CN1CCN(c2ccc(Nc3nc(N)n(C(=O)c4c(F)cccc4F)n3)cc2)CC1 [Cpd 71] :: < 4.00
CCc1ccc(C(=O)n2nc(Nc3ccc(S(=O)(=O)Nc4ccccn4)cc3)nc2N)s1 [Cpd 119] :: < 4.00

Now for a further compound.
Prompt: Annotate the compound Cc1cc(C)c(C(=O)n2nc(Nc3ccc(S(=O)(=O)Nc4ccccn4)cc3)nc2N)s1 [Cpd 120] with its measured pIC50.
Completion: < 4.00

---

- Tgt: MAP Kinase (ERK-2 isoform) (Rattus norvegicus, UniProt P63086)
- Construct: polyhistidine (N); host or cells: E. coli
- Sequence (P63086 whole entry, canonical isoform): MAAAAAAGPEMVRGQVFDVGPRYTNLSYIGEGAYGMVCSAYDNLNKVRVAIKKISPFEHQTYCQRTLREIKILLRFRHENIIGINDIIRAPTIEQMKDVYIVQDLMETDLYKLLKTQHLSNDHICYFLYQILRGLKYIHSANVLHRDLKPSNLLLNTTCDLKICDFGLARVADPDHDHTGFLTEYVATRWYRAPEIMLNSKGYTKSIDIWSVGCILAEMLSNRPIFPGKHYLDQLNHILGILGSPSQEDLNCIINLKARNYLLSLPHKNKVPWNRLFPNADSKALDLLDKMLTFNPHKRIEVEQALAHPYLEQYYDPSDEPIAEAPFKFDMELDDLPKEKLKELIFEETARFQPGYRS
- Protocol notes: Kinase Selectivity Assay MAP Kinase (ERK-2)
- Assay type: biochemical
- Condition label: Kinase Selectivity, Tables 2a-2k; read-out: ERK 2 IC50
Measured quantity: IC50 (µM)
Please respond with the number in µM and leave the unit unwritten.

Prompt: Name the recorded IC50 of Nc1ccc(F)c(C(=O)n2nc(Nc3ccc(S(N)(=O)=O)cc3)nc2N)c1F [Cpd 55] , assay system MAP Kinase (ERK-2 isoform) (Rattus norvegicus, UniProt P63086).
Completion: 12.9

Prompt: With MAP Kinase (ERK-2 isoform) (Rattus norvegicus, UniProt P63086) as the test system, provide measured IC50 for this compound: Cc1ccc(F)c(C(=O)n2nc(Nc3ccc(S(N)(=O)=O)cc3)nc2N)c1Cl [Cpd 69]
Completion: 12.5

Prompt: State measured IC50 of the compound CCc1ccc(C(=O)n2nc(Nc3ccc(S(N)(=O)=O)cc3)nc2N)s1 [Cpd 32] with MAP Kinase (ERK-2 isoform) (Rattus norvegicus, UniProt P63086).
Completion: 0.563
